Measured Target: T1, mouse PD-L1 on 4T1 cancer cells (mouse, UniProt Q9EP73 19-290)
T1 construct: whole, on cells; also called mouse cancer cell line 4T1
T1 sequence (Q9EP73 19-290): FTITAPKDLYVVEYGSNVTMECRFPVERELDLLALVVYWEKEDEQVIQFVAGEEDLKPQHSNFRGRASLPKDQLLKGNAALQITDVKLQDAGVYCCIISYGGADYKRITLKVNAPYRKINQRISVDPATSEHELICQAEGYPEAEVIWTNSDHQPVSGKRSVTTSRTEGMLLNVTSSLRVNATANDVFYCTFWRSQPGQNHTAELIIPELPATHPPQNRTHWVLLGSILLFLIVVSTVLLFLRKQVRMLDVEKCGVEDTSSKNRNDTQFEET
Assay Overview: blocking of mouse PD-1 binding to 4T1 cells; note: test concentration or dose not given here
No end group written: not given here.
Measure: Blocking Efficiency (%)
Write the answer as a number in %, unit excluded.

For record WHRSYYTWNLNT (not fully specified, 12-mer from phage display) [CLP002 peptide] the listed Blocking Efficiency (%) is 61

Given item HYPFRPHANQAS (not fully specified, 12-mer from phage display) [CLP001 peptide] , the value recorded as its Blocking Efficiency (%) is 35

Noted for WHFSYNWRWLPP (not fully specified, 12-mer from phage display) [CLP003 peptide] : its Blocking Efficiency (%) reads 50

Record summary for DYHDPSLPTLRK (not fully specified, 12-mer from phage display) [CLP004 peptide] : reported Blocking Efficiency (%) = 34
